molecular target: T1, human MSLN-R2-his protein (human, UniProt Q13421 391-486); assay: ELISA, coated MSLN-R2;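 further: chimeric antibodies bound to blocked coated plates for 2 h at 37 °C, TMB colour development stopped with HCl, with a negative control antibody for comparison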
T1 construct: Region 2 of human MSLN, His-tagged; also called human MSLN-R2 protein; hMSLN-R2-his; not shown: His tag
T1 sequence (Q13421 other isoform, or with tags, fused parts or gaps): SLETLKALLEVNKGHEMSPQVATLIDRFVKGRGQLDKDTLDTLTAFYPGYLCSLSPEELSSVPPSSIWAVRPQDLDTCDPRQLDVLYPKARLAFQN
Form field: OD450 at 100 nM (one value per entry).
Numbers only; they are read as OD450.

# count of solved cases: 2
S009-F1.62.9 (antibody, human IgG1, kappa, V domains shown, Human-murine chimeric antibody, human IgG1/kappa constant regions) VH: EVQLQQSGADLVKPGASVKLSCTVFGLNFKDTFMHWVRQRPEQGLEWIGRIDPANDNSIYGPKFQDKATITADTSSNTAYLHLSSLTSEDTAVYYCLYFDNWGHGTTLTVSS VL: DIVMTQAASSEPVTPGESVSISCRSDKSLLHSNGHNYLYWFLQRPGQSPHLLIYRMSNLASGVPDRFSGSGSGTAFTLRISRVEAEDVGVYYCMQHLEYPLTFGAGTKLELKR : 0.06
S009-F1.57.1 (antibody, human IgG1, kappa, V domains shown, Human-murine chimeric antibody, human IgG1/kappa constant regions) VH: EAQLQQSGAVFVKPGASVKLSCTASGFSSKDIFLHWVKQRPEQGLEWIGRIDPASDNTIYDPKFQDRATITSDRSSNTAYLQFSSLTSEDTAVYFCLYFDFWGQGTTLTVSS VL: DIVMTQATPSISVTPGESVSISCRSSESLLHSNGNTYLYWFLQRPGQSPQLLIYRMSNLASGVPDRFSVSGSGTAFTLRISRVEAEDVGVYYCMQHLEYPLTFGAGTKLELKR : 0.11

Look up OD450 at 100 nM for this binder: S009-F1.56.1 (antibody, human IgG1, kappa, V domains shown, Human-murine chimeric antibody, human IgG1/kappa constant regions) VH: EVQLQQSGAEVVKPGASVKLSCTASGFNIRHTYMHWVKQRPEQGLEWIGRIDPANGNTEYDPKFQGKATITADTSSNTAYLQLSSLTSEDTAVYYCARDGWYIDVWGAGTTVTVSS VL: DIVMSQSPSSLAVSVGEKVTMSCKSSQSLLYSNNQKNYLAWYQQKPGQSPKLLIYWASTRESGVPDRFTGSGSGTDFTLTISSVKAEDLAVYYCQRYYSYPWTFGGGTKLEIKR
2.62

FYI, the data here is from patent US20250250357A1.
